Biological target: gEgI WT: HSV2 gEgI heterodimer comprising gE and gI wildtype ectodomains (HSV2, UniProt P89475 21-416; P06764 21-256)
Assay: SPR binning; gEgI captured by mAb 5
Quantity kind: RU (RU)
Unit RU implied. Number only.

Previously resolved entries follow.
Binder | Value unit | Reported value
mAb clone 34 (antibody, V domains shown) VH: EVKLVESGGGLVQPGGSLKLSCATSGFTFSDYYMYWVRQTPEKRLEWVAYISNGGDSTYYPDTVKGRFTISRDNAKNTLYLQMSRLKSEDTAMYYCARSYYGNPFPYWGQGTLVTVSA VL: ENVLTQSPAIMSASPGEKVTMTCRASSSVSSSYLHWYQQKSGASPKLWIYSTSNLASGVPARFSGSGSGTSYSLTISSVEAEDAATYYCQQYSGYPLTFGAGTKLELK | RU | -2.1
mAb clone 17 (antibody, V domains shown) VH: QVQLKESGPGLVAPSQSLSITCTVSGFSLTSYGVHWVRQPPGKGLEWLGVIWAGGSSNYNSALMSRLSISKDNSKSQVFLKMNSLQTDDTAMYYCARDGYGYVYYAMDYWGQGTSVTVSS VL: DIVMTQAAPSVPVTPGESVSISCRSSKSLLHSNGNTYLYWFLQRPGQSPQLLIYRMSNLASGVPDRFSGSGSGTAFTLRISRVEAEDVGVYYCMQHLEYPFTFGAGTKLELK | RU | 0.5
mAb clone 20 (antibody, V domains shown) VH: QVQLQQSGAELVRPGTSVKVSCKASGYAFTNYLIEWVKQRPGQGLEWIGVINPGSGGTNYNEKFKGKATLTADKSSSTAYMQLSSLTSDDSAVYFCARSHYGNYYAMDYWGQGTSVTVSS VL: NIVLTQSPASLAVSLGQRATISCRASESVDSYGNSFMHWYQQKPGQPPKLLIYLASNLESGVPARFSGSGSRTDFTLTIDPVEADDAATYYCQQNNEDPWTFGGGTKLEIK | RU | 25.3
mAb clone 40 (antibody, V domains shown) VH: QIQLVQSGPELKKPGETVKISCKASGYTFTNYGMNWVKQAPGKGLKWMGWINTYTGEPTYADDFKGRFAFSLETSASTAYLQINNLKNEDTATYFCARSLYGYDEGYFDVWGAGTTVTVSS VL: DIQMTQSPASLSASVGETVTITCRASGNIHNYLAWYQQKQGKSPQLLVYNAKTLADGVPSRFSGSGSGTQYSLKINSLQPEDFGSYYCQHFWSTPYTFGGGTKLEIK | RU | 9

According to the records, this binder mAb clone 39 (antibody, V domains shown) VH: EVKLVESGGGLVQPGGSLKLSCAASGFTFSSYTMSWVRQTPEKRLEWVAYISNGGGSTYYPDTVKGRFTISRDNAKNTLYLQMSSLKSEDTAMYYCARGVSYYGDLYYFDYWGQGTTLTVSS VL: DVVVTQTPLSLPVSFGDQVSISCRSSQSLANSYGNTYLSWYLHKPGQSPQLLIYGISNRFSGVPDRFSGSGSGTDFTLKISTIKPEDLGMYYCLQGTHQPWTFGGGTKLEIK displays RU of 0.6
